Numbers sourced from patent US12502393B2.

Would you kindly list IC50 for each of these molecules?
- measured on: recombinant human (rh) PDE5A (Homo sapiens, UniProt O76074)
- Construct: GST
- procedure text: Phosphodiesterase-5 activity assay (radiometric SPA)
- measurement context: rhPDE5A1, 0.5 μM cGMP, 20 min at 37° C.
Report only the number, with the unit nM understood.

For the molecule shown here, CCCc1nn(C)c2c(=O)[nH]c(-c3cc(S(=O)(=O)N4CCC(C(O)CCO)CC4)ccc3OCC)nc12 (single isomer, unassigned) [Compound 14-1] , give the reported IC50.
4.4

For the molecule shown here, CCCc1nc(C)c2c(=O)[nH]c(-c3cc(S(=O)(=O)N4CCC(C(O)CCO[N+](=O)[O-])CC4)ccc3OCC)nn12 (single isomer, unassigned) [Compound 2e] , give the reported IC50.
0.2

For the molecule shown here, CCCc1nn(C)c2c(=O)[nH]c(-c3cc(S(=O)(=O)N4CCC(C(O)C(CO)CO)CC4)ccc3OCC)nc12 (stereo not drawn) , give the reported IC50.
8.5

For the molecule shown here, CCCc1nc(C)c2c(=O)[nH]c(-c3cc(S(=O)(=O)N4CCC(CC(C)(CO)CO[N+](=O)[O-])CC4)ccc3OCC)nn12 (stereo not drawn) , give the reported IC50.
0.11

For the molecule shown here, `CCCc1nc(C)c2c(=O)[nH]c(-c3cc(S(=O)(=O)N4CCC([C@H](CO[N+](=O)[O-])O[N+](=O)[O-])CC4)ccc3OCC)nn12` , give the reported IC50.
0.42

For the molecule shown here, `CCCc1nn(C)c2c(=O)[nH]c(-c3cc(S(=O)(=O)N4CCC(C(O)(CCO[N+](=O)[O-])CCO[N+](=O)[O-])CC4)ccc3OCC)nc12` , give the reported IC50.
4.7

For the molecule shown here, `CCCc1nn(C)c2c(=O)[nH]c(-c3cc(S(=O)(=O)N4CCC(C(O)(CCO)CCO)CC4)ccc3OCC)nc12` , give the reported IC50.
2

For the molecule shown here, `CCCc1nn(C)c2c(=O)[nH]c(-c3cc(S(=O)(=O)N4CCC([C@@H](O)CO[N+](=O)[O-])CC4)ccc3OCC)nc12` , give the reported IC50.
1

For the molecule shown here, `CCCc1nc(C)c2c(=O)[nH]c(-c3cc(S(=O)(=O)N4CCC([C@@H](O)CO)CC4)ccc3OCC)nn12` , give the reported IC50.
0.08

For the molecule shown here, `CCCc1nc(C)c2c(=O)[nH]c(-c3cc(S(=O)(=O)N4CCC([C@@H](CO[N+](=O)[O-])O[N+](=O)[O-])CC4)ccc3OCC)nn12` , give the reported IC50.
0.28

For the molecule shown here, CCCc1nn(C)c2c(=O)[nH]c(-c3cc(S(=O)(=O)N4CCC(C(O)CCO[N+](=O)[O-])CC4)ccc3OCC)nc12 (single isomer, unassigned) [Compound 1e] , give the reported IC50.
4.6

For the molecule shown here, CCCc1nc(C)c2c(=O)[nH]c(-c3cc(S(=O)(=O)N4CCC(C(CO)O[N+](=O)[O-])CC4)ccc3OCC)nn12 (single isomer, unassigned) [Compound 2l] , give the reported IC50.
0.17

====

- measured on: recombinant human (rh) PDE5A (Homo sapiens, UniProt O76074)
- Construct: GST
- procedure text: Phosphodiesterase-5 activity assay (radiometric SPA)
- measurement context: rhPDE5A1, 0.5 μM cGMP, 20 min at 37° C.
Would you kindly list pIC50 for each of these compounds?
Interpret pIC50 as the negative base-10 log of the concentration measured in mol/L.

For the compound shown here, CCCc1nn(C)c2c(=O)[nH]c(-c3cc(S(=O)(=O)N4CCC(C(O)CCO)CC4)ccc3OCC)nc12 (single isomer, unassigned) [Compound 14-2] , give the reported pIC50.
8.41

For the compound shown here, `CCCc1nn(C)c2c(=O)[nH]c(-c3cc(S(=O)(=O)N4CCC([C@H](O)CO[N+](=O)[O-])CC4)ccc3OCC)nc12` , give the reported pIC50.
8.92

For the compound shown here, `CCCc1nc(C)c2c(=O)[nH]c(-c3cc(S(=O)(=O)N4CCC([C@@H](O)CO[N+](=O)[O-])CC4)ccc3OCC)nn12` , give the reported pIC50.
9.85

====

- measured on: recombinant human (rh) PDE5A (Homo sapiens)
- Construct: GST
- procedure text: Phosphodiesterase-5 activity assay (radiometric SPA)
- measurement context: rhPDE5A1, 0.5 μM cGMP, 20 min at 37° C.
parameter measured: IC50 (nM)
Report only the number, with the unit nM understood.

For the molecule shown here, `CCCc1nc(C)c2c(=O)[nH]c(-c3cc(S(=O)(=O)N4CCC(C(O)(CCO[N+](=O)[O-])CCO[N+](=O)[O-])CC4)ccc3OCC)nn12` , give the reported IC50.
1

For the molecule shown here, CCCc1nn(C)c2c(=O)[nH]c(-c3cc(S(=O)(=O)N4CCC(C(O)(CCO)CCO[N+](=O)[O-])CC4)ccc3OCC)nc12 (stereo not drawn) , give the reported IC50.
4.8

For the molecule shown here, CCCc1nn(C)c2c(=O)[nH]c(-c3cc(S(=O)(=O)N4CCC(C(O)CCO[N+](=O)[O-])CC4)ccc3OCC)nc12 (single isomer, unassigned) [Compound 1f] , give the reported IC50.
3.8

For the molecule shown here, `CCCc1nc(C)c2c(=O)[nH]c(-c3cc(S(=O)(=O)N4CCC(CC(C)(CO)CO)CC4)ccc3OCC)nn12` , give the reported IC50.
0.022

For the molecule shown here, `CCCc1nn(C)c2c(=O)[nH]c(-c3cc(S(=O)(=O)N4CCC([C@H](CO[N+](=O)[O-])O[N+](=O)[O-])CC4)ccc3OCC)nc12` , give the reported IC50.
5

For the molecule shown here, CCCc1nn(C)c2c(=O)[nH]c(-c3cc(S(=O)(=O)N4CCC(C(CO)O[N+](=O)[O-])CC4)ccc3OCC)nc12 (single isomer, unassigned) [Compound 1k] , give the reported IC50.
0.55

====

- procedure text: Human plasma protein binding
- Format: in vitro ADME
- measurement context: human, read-out: % Unbound in human plasma
parameter measured: fraction unbound
Respond with the number and no other words.

For the molecule shown here, CCCc1nc(C)c2c(=O)[nH]c(-c3cc(S(=O)(=O)N4CCC([C@H](CO[N+](=O)[O-])O[N+](=O)[O-])CC4)ccc3OCC)nn12 [Compound 2a] , give the reported fraction unbound.
0.002

For the molecule shown here, CCCc1nc(C)c2c(=O)[nH]c(-c3cc(S(=O)(=O)N4CCC(CC(CO)CO)CC4)ccc3OCC)nn12 [Compound 43] , give the reported fraction unbound.
0.022

For the molecule shown here, CCCc1nc(C)c2c(=O)[nH]c(-c3cc(S(=O)(=O)N4CCC(C(O)(CCO)CCO)CC4)ccc3OCC)nn12 [Compound 28] , give the reported fraction unbound.
0.069

For the molecule shown here, CCCc1nc(C)c2c(=O)[nH]c(-c3cc(S(=O)(=O)N4CCC(C(O)C(CO[N+](=O)[O-])CO[N+](=O)[O-])CC4)ccc3OCC)nn12 (stereo not drawn) [Compound 2i] , give the reported fraction unbound.
0.0001

For the molecule shown here, CCCc1nn(C)c2c(=O)[nH]c(-c3cc(S(=O)(=O)N4CCC(C(O)C(CO)CO)CC4)ccc3OCC)nc12 (stereo not drawn) [Compound 22] , give the reported fraction unbound.
0.036

For the molecule shown here, CCCc1nc(C)c2c(=O)[nH]c(-c3cc(S(=O)(=O)N4CCC([C@H](O)CO[N+](=O)[O-])CC4)ccc3OCC)nn12 [Compound 2d] , give the reported fraction unbound.
0.0173

For the molecule shown here, CCCc1nc(C)c2c(=O)[nH]c(-c3cc(S(=O)(=O)N4CCC(CC(C)(CO[N+](=O)[O-])CO[N+](=O)[O-])CC4)ccc3OCC)nn12 [Compound 2o] , give the reported fraction unbound.
0.0005

For the molecule shown here, CCCc1nc(C)c2c(=O)[nH]c(-c3cc(S(=O)(=O)N4CCC(CC(C)(CO)CO[N+](=O)[O-])CC4)ccc3OCC)nn12 (stereo not drawn) [Compound 2p] , give the reported fraction unbound.
0.0034

For the molecule shown here, CCCc1nc(C)c2c(=O)[nH]c(-c3cc(S(=O)(=O)N4CCC(C(O)(CCO[N+](=O)[O-])CCO[N+](=O)[O-])CC4)ccc3OCC)nn12 [Compound 2h] , give the reported fraction unbound.
0.0023

====

- measured on: recombinant human (rh) PDE5A (Homo sapiens)
- Construct: GST
- procedure text: Phosphodiesterase-5 activity assay (radiometric SPA)
- measurement context: rhPDE5A1, 0.5 μM cGMP, 20 min at 37° C.
parameter measured: pIC50
Interpret pIC50 as the negative base-10 log of the concentration measured in mol/L.

For the compound shown here, `CCCc1nc(C)c2c(=O)[nH]c(-c3cc(S(=O)(=O)N4CCC([C@H](O)CO[N+](=O)[O-])CC4)ccc3OCC)nn12` , give the reported pIC50.
9.80

For the compound shown here, `CCCc1nn(C)c2c(=O)[nH]c(-c3cc(S(=O)(=O)N4CCC([C@@H](CO[N+](=O)[O-])O[N+](=O)[O-])CC4)ccc3OCC)nc12` , give the reported pIC50.
8.31

For the compound shown here, CCCc1nc(C)c2c(=O)[nH]c(-c3cc(S(=O)(=O)N4CCC(C(O)C(CO[N+](=O)[O-])CO[N+](=O)[O-])CC4)ccc3OCC)nn12 (stereo not drawn) , give the reported pIC50.
8.82

For the compound shown here, `CCCc1nc(C)c2c(=O)[nH]c(-c3cc(S(=O)(=O)N4CCC(CC(CO[N+](=O)[O-])CO[N+](=O)[O-])CC4)ccc3OCC)nn12` , give the reported pIC50.
9.36

For the compound shown here, CCCc1nc(C)c2c(=O)[nH]c(-c3cc(S(=O)(=O)N4CCC(CC(CO)CO[N+](=O)[O-])CC4)ccc3OCC)nn12 (stereo not drawn) , give the reported pIC50.
9.33

For the compound shown here, CCCc1nc(C)c2c(=O)[nH]c(-c3cc(S(=O)(=O)N4CCC(C(O)CCO[N+](=O)[O-])CC4)ccc3OCC)nn12 (single isomer, unassigned) [Compound 2f] , give the reported pIC50.
9.52

For the compound shown here, `CCCc1nn(C)c2c(=O)[nH]c(-c3cc(S(=O)(=O)N4CCC([C@H](O)CO)CC4)ccc3OCC)nc12` , give the reported pIC50.
8.80

For the compound shown here, CCCc1nc(C)c2c(=O)[nH]c(-c3cc(S(=O)(=O)N4CCC(C(O)(CCO)CCO[N+](=O)[O-])CC4)ccc3OCC)nn12 (stereo not drawn) , give the reported pIC50.
9.43

For the compound shown here, `CCCc1nc(C)c2c(=O)[nH]c(-c3cc(S(=O)(=O)N4CCC(CC(C)(CO[N+](=O)[O-])CO[N+](=O)[O-])CC4)ccc3OCC)nn12` , give the reported pIC50.
9.28

For the compound shown here, CCCc1nc(C)c2c(=O)[nH]c(-c3cc(S(=O)(=O)N4CCC(C(CO)O[N+](=O)[O-])CC4)ccc3OCC)nn12 (single isomer, unassigned) [Compound 2k] , give the reported pIC50.
9.59

For the compound shown here, `CCCc1nc(C)c2c(=O)[nH]c(-c3cc(S(=O)(=O)N4CCC([C@H](O)CO)CC4)ccc3OCC)nn12` , give the reported pIC50.
10.15

For the compound shown here, `CCCc1nc(C)c2c(=O)[nH]c(-c3cc(S(=O)(=O)N4CCC(C(O)(CCO)CCO)CC4)ccc3OCC)nn12` , give the reported pIC50.
9.72
